- runDescription: protein stability index of a GFP-peptide fusion (yeast GPS) (PSI 1-4); higher = more stable; sorted into four equal gates, so the index is relative within each strain
- conditionNotes: doa10∆
Entries and their protein stability index values follow.

Answered examples (6):
residues	protein stability index
EGEPVNSPNYFVAKLAA [COR1]	3.31
KSPEQCILRFLQLPIED [SWI3]	1.81
VDKNGAHLYMLEPSGSY [PRE10]	2.04
NRTKSTTIKNIDILNRT [SMC4]	2.15
KNLSLLAEEVVDNIVNK [SRP68]	3.15
KPSPIDSGIGSNGSGIV [CSL4]	3.17

Ask: Input MVDESDKKQQTIDEQSQ [RPN1] , output reported protein stability index.
Result: 3.17

Ask: Please list protein stability index recorded for the sequence LYTLVINDAGKAKKLIQ [RPL38]
Result: 2.06

----------
- runDescription: protein stability index of a GFP-peptide fusion (yeast GPS) (PSI 1-4); higher = more stable; sorted into four equal gates, so the index is relative within each strain
- conditionNotes: pdr5∆
measureName: protein stability index
Answer as a number with no unit attached.

Solved cases below.
residues	protein stability index
INVDNDPFFAQSEDLSH [YML103C/NUP188]	3.08
QWGKYQTFGVDILAKLF [SWI1]	2.54
ILYSFKLSGKLLKEEKI [YML103C/NUP188]	1.6
GKRQVLIRPSSKVIIKF [RPS22A]	2.4
LIPCKYLNRHADFFVRE [RPN7]	2.49

Ask: Please give measured protein stability index of the following entry: NSADAAYAQVEIQPRAN [FAS2]
Result: 2.76

Ask: Tell us which protein stability index value is on record for MPPKKSWRNITNLSGGE [SMC4]
Result: 2.85

Ask: Return protein stability index for the following sequence: RANVYVGFLVQLDLTGI [PRP8]
Result: 2.13

Ask: Consider the sequence QNIAQSSNQSAPVETKK [HRT1] . State its measured protein stability index.
Result: 2.91

Ask: In one line, give reported protein stability index of the entry ETLVLDEADKMIDLGFE [PRP28] .
Result: 3.22

Ask: Give the measured protein stability index for LPSAVDGENDKKEATKP [YLR335W/NUP2]
Result: 3.29

Ask: Look up protein stability index of TNKDNKAELIKPIQNGE [ARP9] and report it.
Result: 3.14

----------
- runDescription: protein stability index of a GFP-peptide fusion (yeast GPS) (PSI 1-4); higher = more stable; sorted into four equal gates, so the index is relative within each strain
- conditionNotes: san1∆
Listed below: protein stability index values for each entry.
The answer should be a number; do not append a unit.

residues	valueObserved
KRSGHRTAPKSDNVYLK [RPL18A]	2.69
LTLRKAKAPSGLDQSRI [FAS1]	3.17
NTSVLMKLKLMIVYYKD [YCS4]	1.32
DRKKDKNVKHSGNIQLD [RPL12A]	3.38
KTPEEVEVYAKIFWERL [ISW2]	3.03
TVSPTQDKDAIRKQPDD [SIR2]	2.99

Ask: Specify protein stability index for VTIREQINIMPSLKAHF [SIR3] and stop.
Result: 2.85

Ask: Please give the documented protein stability index of IGDKFASRHGQKGTIGI [RPB2]
Result: 1.57

Ask: Check the records and state protein stability index for KNTLLERLKQLTPNEIK [SWP82]
Result: 2.71

----------
- runDescription: protein stability index of a GFP-peptide fusion (yeast GPS) (PSI 1-4); higher = more stable; sorted into four equal gates, so the index is relative within each strain
- conditionNotes: san1∆
Record rule met whenever protein stability index is at 3 or higher; record rule not met when lower.

Known results for sequences:
residues	assignedCategory
LKDFNTERVVEIGPSPT [FAS2]	rule not met
QDVDFYKNLDRGFSKDL [RRP6]	rule met
YASKINRAEGPEELARI [RGR1]	rule met
AQQAQQAQQAQQAQARL [SNF2]	rule met
NVNKKALGQDTEKMEEQ [MED11]	rule not met

Please examine the following record next.
Ask: Is protein stability index at least 3? Consider YMKFSNKYLELCKLASN [RRI2]
Result: rule not met

----------
- runDescription: protein stability index of a GFP-peptide fusion (yeast GPS) (PSI 1-4); higher = more stable; sorted into four equal gates, so the index is relative within each strain
- conditionNotes: doa10∆
measureName: protein stability index

Answered examples (3):
residues	protein stability index
MSLPATFDLTPEDAQLL [RPS0A]	2.75
LITSSARKELPIFDYIH [SIR3]	2.16
FPQGLNIVMDSKQNGIE [SSN8]	3.11

Now let's try a different one.
Ask: For the sequence TSPQYIPSPLSSTKPPG [NUT1] , give its reported protein stability index.
Result: 2.51

----------
Attribute: protein stability index
- runDescription: protein stability index of a GFP-peptide fusion (yeast GPS) (PSI 1-4); higher = more stable; sorted into four equal gates, so the index is relative within each strain
- conditionNotes: pdr5∆
Just the number, please, no unit after it.

residues	valueObserved
EPLAFYLEESFTNLGII [RGR1]	2.18
IVTALLESDVNIALVSK [SRP54]	3.19
QYYVTQHDKMVDKIFEK [SWI1]	2.42
LQKALTVKTNDELMVIY [RPN8]	1.89
HDNHGNKLGNKRLTEDE [CDC53]	2.84

Ask: Supply reported protein stability index belonging to this sequence: NPHQKDQLIISSSANKL [YML103C/NUP188]
Result: 2.71

Ask: In one line, give reported protein stability index of the entry QHEQQKQQEQLEQQKQP [YMR153W/NUP53] .
Result: 3.35

Ask: Look up and report measured protein stability index for this entry: SGNEMPPQDAEGWFYKR [RPS19A]
Result: 3.29

----------
- runDescription: protein stability index of a GFP-peptide fusion (yeast GPS) (PSI 1-4); higher = more stable; sorted into four equal gates, so the index is relative within each strain
- conditionNotes: pdr5∆
Classification field: enter t for protein stability index values not below 3, f for values below it.

Check out these entries, answers already filled in.
residues	assignedCategory
SDLVNQGIIYAKVNRPA [RPN5]	t
NSSEIQSAIRPAGQATQ [RPL4A]	f
HARGGGAISAVAATNTP [SRP54]	f
IQKESTLHLVLRLRGGG [RPS31]	f
RKLINYTKKHLSSHSST [RPN4]	f

Ask: State whether the measured protein stability index reaches 3, counting equality as reaching it, for IILLGVLEDCRHLPMYT [ITC1]
Result: f

Ask: Determine whether this sequence has protein stability index no lower than 3: TDYLYRRLHDENLMVQR [YCS4]
Result: f

Ask: For this sequence, is measured protein stability index 3 or higher? RINTLPQVQLPVRALIV [ECM29]
Result: f

Ask: Please tell me: is the sequence FINNVLSNPSNQNICTS [GRR1] at or over 3 in terms of protein stability index?
Result: f

Ask: Quick check: does MKDKEINIQKYNNNTIR [CSI1] have protein stability index greater than or equal to 3?
Result: f

Ask: Evaluate NESEKDQWLEEYKKHFP [UBP6] : protein stability index at minimum 3?
Result: t

Ask: Dear colleague, could you confirm whether AFTRKQANQVKRHSYAQ [RPS1A] has protein stability index at or above 3?
Result: f

Ask: API: above_or_equal(metric=protein stability index, cutoff=3) for item EKAKEMIRLLGSESDDS [ECM29]
Result: f

Ask: Kindly determine if protein stability index recorded for SDEERDDEDDEHNPTIV [AAR2] is above or exactly 3.
Result: t

Ask: # check: protein stability index of DELERILKELSNLETLY [RPB4] is greater than or equal to 3
Result: t

Ask: Has PKFDVGALMALHGEGSG [RPS1A] a recorded protein stability index greater than or equal to 3?
Result: f

Ask: Reported protein stability index reaches at least 3 for YSVYLIHEIRLNTLNNV [SIR3] ?
Result: f

Ask: # check: protein stability index of DPNNPVDFDGLDIKRVG [SNF12] is greater than or equal to 3
Result: t

Ask: Kindly determine if protein stability index recorded for ASKGRTKIDMPIKNRKN [BRN1] is above or exactly 3.
Result: t

Ask: Evaluate TVKLTEIVWTSSLIKAG [RPO31] : protein stability index at minimum 3?
Result: f

Ask: protein stability index >= 3 for QTLLANSDHAKFTIEPG [SNF2] ?
Result: f

Ask: Determine whether this sequence has protein stability index no lower than 3: FDIIEESFKGLQPFWFR [ECM29]
Result: f

Ask: Is it the case that EDEGEELTDEYLAENPD [PRP8] has protein stability index reaching or exceeding 3?
Result: t

Ask: Is it the case that SRRLMKSLEDLSCQYDN [RPO31] has protein stability index reaching or exceeding 3?
Result: f

Ask: // inclusive: protein stability index at least 3? input: YDPKDALKNACNSIINK [RPB11]
Result: t

Ask: Hi, just wondering whether KPEIDENGTLLVPPPRT [RPR2] shows protein stability index of 3 or higher.
Result: t

Ask: State whether the measured protein stability index reaches 3, counting equality as reaching it, for IEEQDKKVQALQSDKNF [ITC1]
Result: t

Ask: Exam item: decide whether the reported protein stability index for KKSKLISLYLLNLLSQN [RPN12] is at least 3.
Result: f

Cited source for all entries: the supplement of paper PMC9732359
